assay: Determination of the lethal effect (acute toxicity); design: species or system female albino mice NMRI; conditions: mouse, in vivo; oral; mice; observation time 7 days
Simple rule here: LD50 at 168 h less than 200 mg/kg is condition met, otherwise condition not met.

Below are worked cases with known answers.
CN1CCC(Cc2ccccc2)(Oc2ccccc2)CC1 [compound 7] | condition not met
CN1CCC(Cc2ccccc2)(Oc2ccc(N)cc2)CC1 [compound 4] | condition met
CN1CCC(Oc2ccc([N+](=O)[O-])cc2)(c2ccccc2)CC1 [compound 3] | condition met

Okay, now this compound:
Below 200 mg/kg on LD50 at 168 h? Entry c1ccc(OC2(c3ccccc3)CCNCC2)cc1 [compound 8] condition not met

----------
tested on: Reserpine ptosis; assay: Antiptotic action (Reserpine antagonism); assay type: in vivo, female albino mice NMRI; details: Mus musculus, po, 5 h, read-out: Antiptotic action, Reserpine antagonism ED50, 5 hours after administration
measured attribute: ED50 (mg/kg)
Numbers only; they are read as mg/kg.

Known ED50 results, listed for orientation:
CN1CCC(Oc2ccc(N)cc2)(c2ccccc2)CC1 | 0.7
CN1CCC(Oc2ccc([N+](=O)[O-])cc2)(c2ccccc2)CC1 | 0.7

Then this compound:
Form: compound = `CN1CCC(Oc2ccccc2)(c2ccccc2)CC1` ; ED50 = 2.1

----------
test system: thermal pain; assay: Tail flick test (analgesia); format: in vivo, female albino mice NMRI; details: Mus musculus; oral; dose which prolongs the reaction time by 50%; mice; read-out: Analgesic action, tail flick test ED50
Reported ED50 values for a set of molecules
Numbers only; they are read as mg/kg.

Known ED50 results, listed for orientation:
CN1CCC(Oc2ccc(N)cc2)(c2ccccc2)CC1 | 12
CN1CCC(Oc2ccc([N+](=O)[O-])cc2)(c2ccccc2)CC1 | 50

Then this molecule:
Form: molecule = `CN1CCC(Cc2ccccc2)(Oc2ccccc2)CC1` ; ED50 = 55

----------
test: Determination of the lethal effect (acute toxicity); design: species or system female albino mice NMRI; details: mouse, in vivo; oral; mice; observation time 7 days
Reported LD50 at 168 h values for a set of compounds
Numbers only; they are read as mg/kg.

Known LD50 at 168 h results, listed for orientation:
CN1CCC(Oc2ccccc2)(c2ccccc2)CC1 | 220
CN1CCC(Cc2ccccc2)(Oc2ccc([N+](=O)[O-])cc2)CC1 | 290

Then this compound:
Form: compound = `CN1CCC(Oc2ccc(N)cc2)(c2ccccc2)CC1` ; LD50 at 168 h = 160
